Test system: NCI-H1944
Assay: relative viability (nuclei count vs DMSO), 5 days (fraction); higher = more cells survive
Conditions: first compound 0.03162 µM
Each entry below carries its reported relative viability.
Answer with the value's number alone.

compound | relative viability
CCN(CC)CCCCNc1ncc2cc(-c3cc(OC)cc(OC)c3)c(NC(=O)NC(C)(C)C)nc2n1 + CC(=O)c1c(C)c2cnc(Nc3ccc(N4CCNCC4)cn3)nc2n(C2CCCC2)c1=O [Palbociclib] (partner 0.5 µM) | 0.345
O=c1cc(N2CCOCC2)oc2c(-c3cccc4c3sc3ccccc34)cccc12 + Nc1ncn([C@H]2C[C@H](O)[C@@H](CO)O2)c(=O)n1 [Decitabine] (partner 2 µM) | 0.448

Next item in the queue.
Data request: Dear colleague, I am looking for the recorded relative viability of the following compound: O=c1cc(N2CCOCC2)oc2c(-c3cccc4c3sc3ccccc34)cccc12 + CS(=O)(=O)N1CCN(Cc2cc3nc(-c4cccc5[nH]ncc45)nc(N4CCOCC4)c3s2)CC1 [Pictilisib] (partner 1 µM)
Data returned: 0.336

----------
Below, each of the molecules is paired with its reported relative viability value.
Test system: NCI-H2228
Test: relative viability (nuclei count vs DMSO), 5 days (fraction); higher = more cells survive
Conditions: first compound 1 µM
Lab note: record the figure alone, no unit after it.

// known answers, use as guide
molecule | relative viability
CCN(CC)CCCCNc1ncc2cc(-c3cc(OC)cc(OC)c3)c(NC(=O)NC(C)(C)C)nc2n1 + CC(C)C[C@H](NC(=O)[C@H](Cc1ccccc1)NC(=O)c1cnccn1)B(O)O [Bortezomib] (partner 0.002 µM) | 1.02
CCN(CC)CCCCNc1ncc2cc(-c3cc(OC)cc(OC)c3)c(NC(=O)NC(C)(C)C)nc2n1 + Cc1nc(NC(=O)N2CCC[C@H]2C(N)=O)sc1-c1ccnc(C(C)(C)C(F)(F)F)c1 [Alpelisib] (partner 2 µM) | 0.469
CCN(CC)CCCCNc1ncc2cc(-c3cc(OC)cc(OC)c3)c(NC(=O)NC(C)(C)C)nc2n1 + C[C@]1(O)C[C@@H](c2nc(-c3ccc4ccc(-c5ccccc5)nc4c3)c3c(N)nccn32)C1 [Linsitinib] (partner 1 µM) | 0.635

Continue with the next molecule.
Data request: Reported relative viability, molecule O=c1cc(N2CCOCC2)oc2c(-c3cccc4c3sc3ccccc34)cccc12 + C[C@@H](Oc1cc(-c2cnn(C3CCNCC3)c2)cnc1N)c1c(Cl)ccc(F)c1Cl [Crizotinib] (partner 1 µM) : ____
Data returned: 0.471

----------
In this section, each of the compounds is paired with its reported relative viability.
Test system: COR-L 105
Assay: relative viability (nuclei count vs DMSO), 5 days (fraction); higher = more cells survive
Settings: first compound 0.8 µM
No unit in the answer, only the number.

Below are worked cases with known answers.
compound | relative viability
COc1nc(C)cnc1NS(=O)(=O)c1cccnc1-c1ccc(-c2nnco2)cc1 [Zibotentan] + Nc1ncn([C@H]2C[C@H](O)[C@@H](CO)O2)c(=O)n1 [Decitabine] (partner 2 µM) | 0.711
COc1nc(C)cnc1NS(=O)(=O)c1cccnc1-c1ccc(-c2nnco2)cc1 [Zibotentan] + Cc1nc(Nc2ncc(C(=O)Nc3c(C)cccc3Cl)s2)cc(N2CCN(CCO)CC2)n1 [Dasatinib] (partner 0.075 µM) | 0.381
COc1nc(C)cnc1NS(=O)(=O)c1cccnc1-c1ccc(-c2nnco2)cc1 [Zibotentan] + CC(C)C[C@H](NC(=O)[C@H](Cc1ccccc1)NC(=O)c1cnccn1)B(O)O [Bortezomib] (partner 0.002 µM) | 0.859
COc1nc(C)cnc1NS(=O)(=O)c1cccnc1-c1ccc(-c2nnco2)cc1 [Zibotentan] + CCNC(=O)c1noc(-c2cc(C(C)C)c(O)cc2O)c1-c1ccc(CN2CCOCC2)cc1 [Luminespib] (partner 0.01 µM) | 0.891

Data request: Which value of relative viability has been reported for COc1nc(C)cnc1NS(=O)(=O)c1cccnc1-c1ccc(-c2nnco2)cc1 [Zibotentan] + CC(=O)c1c(C)c2cnc(Nc3ccc(N4CCNCC4)cn3)nc2n(C2CCCC2)c1=O [Palbociclib] (partner 0.5 µM) in the records?
Data returned: 0.373

Data request: # repeat for O=c1cc(-c2cccc3c2Sc2ccccc2S3)oc(N2CCOCC2)c1 + CC(=O)c1c(C)c2cnc(Nc3ccc(N4CCNCC4)cn3)nc2n(C2CCCC2)c1=O [Palbociclib] (partner 0.5 µM)
Data returned: 0.385

Data request: Can you check COc1nc(C)cnc1NS(=O)(=O)c1cccnc1-c1ccc(-c2nnco2)cc1 [Zibotentan] + O=C(CCCCCCC(=O)Nc1ccccc1)NO [Vorinostat] (partner 1 µM) next?
Data returned: 0.781

----------
Tested on: LCLC-97TM1
Assay: relative viability (nuclei count vs DMSO), 5 days (fraction); higher = more cells survive
Conditions: first compound 0.6325 µM
quantity-name: relative viability
Enter the number alone.

compound | recorded-measurement
COCC1(CO)C(=O)C2CCN1CC2 (centres undefined) [PRIMA-1MET] + COc1cc2c(Oc3ccc(NC(=O)C4(C(=O)Nc5ccc(F)cc5)CC4)cc3F)ccnc2cc1OCCCN1CCOCC1 [Foretinib] (partner 0.25 µM) | 0.909
COCC1(CO)C(=O)C2CCN1CC2 (centres undefined) [PRIMA-1MET] + Cc1cc(Nc2cc(N3CCN(C)CC3)nc(Sc3ccc(NC(=O)C4CC4)cc3)n2)n[nH]1 [Tozasertib] (partner 0.1 µM) | 0.239
COCC1(CO)C(=O)C2CCN1CC2 (centres undefined) [PRIMA-1MET] + Nc1nc2[nH]cc(CCc3ccc(C(=O)N[C@@H](CCC(=O)O)C(=O)O)cc3)c2c(=O)[nH]1 [Pemetrexed] (partner 0.2 µM) | 0.198

With those in mind, consider the next compound.
Data request: # get_value(readout='relative viability', item= COCC1(CO)C(=O)C2CCN1CC2 (centres undefined) [PRIMA-1MET] + CC(C)C[C@H](NC(=O)[C@H](Cc1ccccc1)NC(=O)c1cnccn1)B(O)O [Bortezomib] (partner 0.002 µM) )
Data returned: 0.428

----------
Test system: LCLC-97TM1
Assay: relative viability (nuclei count vs DMSO), 5 days (fraction); higher = more cells survive
Details: first compound 2.53 µM
Recorded relative viability, one value per entry.
The answer should be written as a number, with no unit following it.

Consider the worked cases shown below.
molecule | relative viability
O=c1cc(-c2cccc3c2Sc2ccccc2S3)oc(N2CCOCC2)c1 + CC(=O)Nc1cccc(-n2c(=O)n(C3CC3)c(=O)c3c(Nc4ccc(I)cc4F)n(C)c(=O)c(C)c32)c1 [Trametinib] (partner 0.02 µM) | 0.186
O=c1cc(-c2cccc3c2Sc2ccccc2S3)oc(N2CCOCC2)c1 + O=C(CCCCCCC(=O)Nc1ccccc1)NO [Vorinostat] (partner 1 µM) | 0.602

Data request: Quick one: relative viability for COc1nc(C)cnc1NS(=O)(=O)c1cccnc1-c1ccc(-c2nnco2)cc1 [Zibotentan] + O=C(c1cc(Cc2n[nH]c(=O)c3ccccc23)ccc1F)N1CCN(C(=O)C2CC2)CC1 [Olaparib] (partner 8 µM) ?
Data returned: 0.385

Data request: Also O=c1cc(-c2cccc3c2Sc2ccccc2S3)oc(N2CCOCC2)c1 + Nc1ncn([C@H]2C[C@H](O)[C@@H](CO)O2)c(=O)n1 [Decitabine] (partner 2 µM) ?
Data returned: 0.186

Data request: Continue with O=c1cc(-c2cccc3c2Sc2ccccc2S3)oc(N2CCOCC2)c1 + COc1cccc2cc(-c3nc([C@H]4CC[C@H](C(=O)O)CC4)n4ncnc(N)c34)[nH]c12 [OSI-027] (partner 0.5 µM)
Data returned: 0.519

----------
System: SK-LU-1
Assay: relative viability (nuclei count vs DMSO), 5 days (fraction); higher = more cells survive
Settings: first compound 8 µM
Cut-off 0.9 on relative viability: below means YES, at or above means NO.

Examples with answers:
compound | label-value
O=c1cc(-c2cccc3c2Sc2ccccc2S3)oc(N2CCOCC2)c1 + Cc1nc(NC(=O)N2CCC[C@H]2C(N)=O)sc1-c1ccnc(C(C)(C)C(F)(F)F)c1 [Alpelisib] (partner 2 µM) | NO
O=c1cc(-c2cccc3c2Sc2ccccc2S3)oc(N2CCOCC2)c1 + CC1(C)CCC(c2ccc(Cl)cc2)=C(CN2CCN(c3ccc(C(=O)NS(=O)(=O)c4ccc(N[C@H](CCN5CCOCC5)CSc5ccccc5)c(S(=O)(=O)C(F)(F)F)c4)cc3)CC2)C1 [Navitoclax] (partner 0.5 µM) | NO
O=c1cc(-c2cccc3c2Sc2ccccc2S3)oc(N2CCOCC2)c1 + O=C(c1cc(Cc2n[nH]c(=O)c3ccccc23)ccc1F)N1CCN(C(=O)C2CC2)CC1 [Olaparib] (partner 8 µM) | YES
O=c1cc(-c2cccc3c2Sc2ccccc2S3)oc(N2CCOCC2)c1 + Cc1nc(Nc2ncc(C(=O)Nc3c(C)cccc3Cl)s2)cc(N2CCN(CCO)CC2)n1 [Dasatinib] (partner 0.075 µM) | YES

With those in mind, consider the next compound.
Data request: Below 0.9 on relative viability? Entry O=c1cc(-c2cccc3c2Sc2ccccc2S3)oc(N2CCOCC2)c1 + CC(=O)Nc1cccc(-n2c(=O)n(C3CC3)c(=O)c3c(Nc4ccc(I)cc4F)n(C)c(=O)c(C)c32)c1 [Trametinib] (partner 0.02 µM)
Data returned: YES
